Tested on: Mycosphaerella graminicola; Anamorph: Septoria tritici
ASSAY_COMMENT: Leaf blotch of wheat (SEPTTR) disease control on wheat seedlings
Type: in vivo
TEST_CONTEXT: Zymoseptoria tritici, 72 h; Wheat Leaf Blotch; 3 Day Curative; high volume application, 100 ppm; read-out: Disease Control SEPTTR 3 DC 100 ppm
Recorded pest or weed control at 100 ppm for the following molecules

> print(dat)
                                smiles.data                              study.system      result
1  C=C(C)c1ccc(O[C@H]2[C@H](C)OC(=O)[C@@H](NC(=O)c3nccc(OC)c3OC(C)=O)CCC[C@@H]2OCCC)cc1  Mycosphaerella graminicola; Anamorph: Septoria tritici  80 to 100%

According to the records, this molecule `CCCO[C@H]1CCC[C@H](NC(=O)c2nccc(OC)c2O)C(=O)O[C@@H](C)[C@@H]1Oc1cccc(F)c1` displays pest or weed control at 100 ppm of 80 to 100%

Form field pest or weed control at 100 ppm, entry `C=C(C)c1ccc(O[C@H]2[C@H](C)OC(=O)[C@@H](NC(=O)c3nccc(OC)c3O)CCC[C@@H]2OCCC)cc1` : 80 to 100%

Query `CCCO[C@H]1CCC[C@H](NC(=O)c2nccc(OC)c2O)C(=O)O[C@@H](C)[C@@H]1Oc1ccc(Br)cc1` yields pest or weed control at 100 ppm of 0 to 80%
